All figures here come from patent US12458605B2.

I'd appreciate it if you could supply PDI values for the items below.
Assay: Average particle size (ζ-Average) and PDI by dynamic light scattering (Zetasizer Nano ZSP)
Format: physicochemical
Settings: FlucmRNA-loaded LNP, 50:10:38.5:1.5
Give bare numbers.

Worked examples, 6 compounds total:
{"columns": ["compound", "PDI"],
 "data": [
  ["CCCCCCCC/C=C\\CCCCCCCC(=O)OCCCCCCC(O)(CCCCCCOC(=O)CCCCCCC/C=C\\CCCCCCCC)CCCCN(CCC)CCC [CL4H6, reference compound]", 0.072],
  ["CCCCCCCC(CCCCC)C(=O)OCCCCCCC(O)(CCCCCCOC(=O)C(CCCCC)CCCCCCC)CCCCN(CCC)CCC (stereo not drawn)", 0.048],
  ["CCCCCCCCCCCCCCCC(=O)OCCCCCCC(O)(CCCCCCOC(=O)CCCCCCCCCCCCCCC)CCCCOC(=O)C1CCN(C)CC1 [CL15F 16-0]", 0.234],
  ["CCCCCCCCCC(CCCCC)C(=O)OCCCCCCC(O)(CCCCCCOC(=O)C(CCCCC)CCCCCCCCC)CCCCN(CCC)CCC (stereo not drawn)", 0.019],
  ["CCCCCCCCCC(CCCCCC)C(=O)OCCCCCCC(O)(CCCCCCOC(=O)C(CCCCCC)CCCCCCCCC)CCCCN(CCC)CCC (stereo not drawn)", 0.020],
  ["CCCCCCCCC(CCCCCCC)C(=O)OCCCCCCC(O)(CCCCCCOC(=O)C(CCCCCCC)CCCCCCCC)CCCCN(CCC)CCC (stereo not drawn)", 0.039]
]}

Would you mind giving PDI for every compound in the list below?
1. CCCCCCCCCCCCCCC(C)C(=O)OCCCCCCC(O)(CCCCCCOC(=O)C(C)CCCCCCCCCCCCCC)CCCCOC(=O)C1CCN(C)CC1 (stereo not drawn) [CL15F 16-1]
2. CCCCCCCCCC(CCCCCCC)C(=O)OCCCCCCC(O)(CCCCCCOC(=O)C(CCCCCCC)CCCCCCCCC)CCCCOC(=O)C1CCN(C)CC1 (stereo not drawn) [CL15F 11-7]
3. CCCCCCC(CCCCC)C(=O)OCCCCCCC(O)(CCCCCCOC(=O)C(CCCCC)CCCCCC)CCCCN(CCC)CCC (stereo not drawn)
4. CCCCCCCCCCCCC(CC)C(=O)OCCCCCCC(O)(CCCCCCOC(=O)C(CC)CCCCCCCCCCCC)CCCCOC(=O)C1CCN(C)CC1 (stereo not drawn) [CL15F 14-2]
5. CCCCCCCC(CCCCCCC)C(=O)OCCCCCCC(O)(CCCCCCOC(=O)C(CCCCCCC)CCCCCCC)CCCCN(CCC)CCC
6. CCCCCCCCC(CCCCCCCC)C(=O)OCCCCCCC(O)(CCCCCCOC(=O)C(CCCCCCCC)CCCCCCCC)CCCCOC(=O)C1CCN(C)CC1 [CL15F 10-8]

Ans.
0.182
0.002
0.043
0.117
0.004
0.026

State recorded PDI for all listed compounds.
1. CCCCCCCCCCCCCCCC(=O)OCCCCCCC(O)(CCCCCCOC(=O)CCCCCCCCCCCCCCC)CCCCN(CCC)CCC
2. CCCCCCCCC(CCCCC)C(=O)OCCCCCCC(O)(CCCCCCOC(=O)C(CCCCC)CCCCCCCC)CCCCN(CCC)CCC (stereo not drawn)
3. CCCCCCCC(CCC)C(=O)OCCCCCCC(O)(CCCCCCOC(=O)C(CCC)CCCCCCC)CCCCN(CCC)CCC (stereo not drawn)

Ans.
0.225
0.021
0.030

---

Test: Average particle size (ζ-Average) and PDI by dynamic light scattering (Zetasizer Nano ZSP)
Assay type: physicochemical
Conditions: FlucmRNA-loaded LNP, lipid:DSPC:cholesterol:DMG-PEG2K 50:10:38.5:1.5
Record form. Attribute: ζ-Average (nm). Fill in for each entry.
One number for each entry, in nm.

{"columns": ["compound", "quantity", "unit-abbrev", "quantitative-readout"],
 "data": [
  ["CCCCCCC(CCCCC)C(=O)OCCCCCCC(O)(CCCCCCOC(=O)C(CCCCC)CCCCCC)CCCCN(CCC)CCC (stereo not drawn)", "ζ-Average (nm)", "nm", 94.65],
  ["CCCN(CCC)CCCCC(O)(CCCCCCOC(=O)C(CCC(C)CC(C)(C)C)C(C)CC(C)(C)C)CCCCCCOC(=O)C(CCC(C)CC(C)(C)C)C(C)CC(C)(C)C (stereo not drawn)", "ζ-Average (nm)", "nm", 81.21],
  ["CCCCCCCCC(CCCCCCCC)C(=O)OCCCCCCC(O)(CCCCCCOC(=O)C(CCCCCCCC)CCCCCCCC)CCCCOC(=O)C1CCN(C)CC1 [CL15F 10-8]", "ζ-Average (nm)", "nm", 99.84],
  ["CCCCCCCCCC(CCCCCC)C(=O)OCCCCCCC(O)(CCCCCCOC(=O)C(CCCCCC)CCCCCCCCC)CCCCN(CCC)CCC (stereo not drawn)", "ζ-Average (nm)", "nm", 84.50],
  ["CCCCCCCC/C=C\\CCCCCCCC(=O)OCCCCCCC(O)(CCCCCCOC(=O)CCCCCCC/C=C\\CCCCCCCC)CCCCOC(=O)C1CCN(C)CC1 [CL15H6, reference compound]", "ζ-Average (nm)", "nm", 180.90]
]}

Hi there! I need ζ-Average (nm) for each item below, if you can.
1. CCCCCC(CCCCC)C(=O)OCCCCCCC(O)(CCCCCCOC(=O)C(CCCCC)CCCCC)CCCCOC(=O)C1CCN(C)CC1 [CL15F 7-5]
2. CCCCCCCCCCC(CCCC)C(=O)OCCCCCCC(O)(CCCCCCOC(=O)C(CCCC)CCCCCCCCCC)CCCCOC(=O)C1CCN(C)CC1 (stereo not drawn) [CL15F 12-4]
3. CCCCCCCCC(CC)C(=O)OCCCCCCC(O)(CCCCCCOC(=O)C(CC)CCCCCCCC)CCCCN(CCC)CCC (stereo not drawn)
4. CCCCCCCC/C=C\CCCCCCCC(=O)OCCCCCCC(O)(CCCCCCOC(=O)CCCCCCC/C=C\CCCCCCCC)CCCCN(CCC)CCC [CL4H6, reference compound]
5. CCCCCCC(CCCC)C(=O)OCCCCCCC(O)(CCCCCCOC(=O)C(CCCC)CCCCCC)CCCCN(CCC)CCC (stereo not drawn)
6. CCCCC(CCCC)C(=O)OCCCCCCC(O)(CCCCCCOC(=O)C(CCCC)CCCC)CCCCOC(=O)C1CCN(C)CC1 [CL15F 6-4]
7. CCCCCCCCCC(CCCCC)C(=O)OCCCCCCC(O)(CCCCCCOC(=O)C(CCCCC)CCCCCCCCC)CCCCN(CCC)CCC (stereo not drawn)

Ans.
196.00
116.60
93.60
71.28
101.60
312.10
81.81

---

Assay: Average particle size (ζ-Average) and PDI by dynamic light scattering (Zetasizer Nano ZSP)
Format: physicochemical
Conditions: FlucmRNA-loaded LNP, 50:10:38.5:1.5
Field: PDI. Provide a value for each of the molecules that follow.
Numbers only.

Example entries begin here.
{"columns": ["molecule", "quantitative-readout"],
 "data": [
  ["CCCCCCCCC(CCCC)C(=O)OCCCCCCC(O)(CCCCCCOC(=O)C(CCCC)CCCCCCCC)CCCCOC(=O)C1CCN(C)CC1 (centres unmarked) [CL15F 10-4]", 0.030],
  ["CCCCCCCCC(CCCCCC)C(=O)OCCCCCCC(O)(CCCCCCOC(=O)C(CCCCCC)CCCCCCCC)CCCCOC(=O)C1CCN(C)CC1 (centres unmarked) [CL15F6]", 0.002],
  ["CCCCCC(CCC)C(=O)OCCCCCCC(O)(CCCCCCOC(=O)C(CCC)CCCCC)CCCCOC(=O)C1CCN(C)CC1 (centres unmarked) [CL15F 7-3]", 0.369],
  ["CCCCCCCC(CCCCCCC)C(=O)OCCCCCCC(O)(CCCCCCOC(=O)C(CCCCCCC)CCCCCCC)CCCCOC(=O)C1CCN(C)CC1 [CL15F 9-7]", 0.010]
]}

Qu. Look up PDI: CCCCCCCCC(CCCCC)C(=O)OCCCCCCC(O)(CCCCCCOC(=O)C(CCCCC)CCCCCCCC)CCCCOC(=O)C1CCN(C)CC1 (centres unmarked) [CL15F 10-5]
Ans. 0.047

---

Assignment: determine reported Fluc Activity in liver for the given molecules.
Tested on: liver
Test: In vivo Fluc activity of FlucmRNA-loaded LNP by in vivo imaging, liver
Conditions: Balb/c mice, FlucmRNA-loaded LNP i.v. 0.1 mg mRNA/kg, 6 hours

Illustrative cases are given below, each with its answer.
{"columns": ["molecule", "Fluc Activity in liver"],
 "data": [
  ["CCCCCCC(CCCC)C(=O)OCCCCCCC(O)(CCCCCCOC(=O)C(CCCC)CCCCCC)CCCCN(CCC)CCC (stereo not shown)", "6.09E+07 Avg Radiance [p/s/cm2/sr]"],
  ["CCCCCCCCC(CCCC)C(=O)OCCCCCCC(O)(CCCCCCOC(=O)C(CCCC)CCCCCCCC)CCCCN(CCC)CCC (stereo not shown)", "1.20E+08 Avg Radiance [p/s/cm2/sr]"],
  ["CCCCCCCC/C=C\\CCCCCCCC(=O)OCCCCCCC(O)(CCCCCCOC(=O)CCCCCCC/C=C\\CCCCCCCC)CCCCOC(=O)C1CCN(C)CC1 [CL15H6, reference compound]", "1.17E+05 Avg Radiance [p/s/cm2/sr]"],
  ["CCCCCCCCC(CCCCCCCC)C(=O)OCCCCCCC(O)(CCCCCCOC(=O)C(CCCCCCCC)CCCCCCCC)CCCCOC(=O)C1CCN(C)CC1 [CL15F 10-8]", "1.35E+07 Avg Radiance [p/s/cm2/sr]"],
  ["CCCCCCCCC(CCCCC)C(=O)OCCCCCCC(O)(CCCCCCOC(=O)C(CCCCC)CCCCCCCC)CCCCOC(=O)C1CCN(C)CC1 (stereo not shown) [CL15F 10-5]", "2.70E+06 Avg Radiance [p/s/cm2/sr]"],
  ["CCCCCCCCCC(CCCCCC)C(=O)OCCCCCCC(O)(CCCCCCOC(=O)C(CCCCCC)CCCCCCCCC)CCCCN(CCC)CCC (stereo not shown)", "1.38E+08 Avg Radiance [p/s/cm2/sr]"]
]}

Shift focus to the following entry.
Qu. What value of Fluc Activity in liver has been reported for the following molecule? CCCCC(CCCC)C(=O)OCCCCCCC(O)(CCCCCCOC(=O)C(CCCC)CCCC)CCCCOC(=O)C1CCN(C)CC1 [CL15F 6-4]
Ans. 1.84E+06 Avg Radiance [p/s/cm2/sr]
